# Test system: Wolbachia pipientis
# test.name: Anti-Wolbachia Cell-Based Screen
# Type: functional
# Parameters: scale not given: in the data most compounds retested in dose-response had high values
# experimental.setup: 5 µM
Hit rate of the full screen: of about 48,000 compounds, about 13,000 (27%) showed an effect of 50% or more. This is one part of the list.
recorded.endpoint: Percent Effect (%)
Write it as a number; the unit % goes unstated.

Example compounds with recorded Percent Effect:
CCCN(C(=O)c1ccccn1)c1nc2c(s1)CCc1c-2cnn1C
-6.785
CC(=O)N1CCC2(CCCN(C(=O)CCN3CCCCC3)C2)C1 (stereo unspecified)
-26.8
CN(C(=O)CCc1ccncc1)C1CCCN(CCc2ccccc2)C1 (stereo unspecified)
-4.229
CC(C)(C)S(=O)(=O)c1ccc(N2CCN(c3ccccc3)CC2)nn1
15.82
CCCc1nnc(SCC(=O)Nc2cc(C(C)(C)C)nn2C)[nH]1
5.759

Moving on to another compound below.
So what's the measured Percent Effect for this one? O=C(NC1CCCN(CCCc2ccccc2)C1)c1ccncc1 (stereo unspecified)
84.08

====

# Tested on: Wolbachia pipientis
# test.name: Anti-Wolbachia Cell-Based Screen
# Format: functional
# Design: scale not given: in the data most compounds retested in dose-response had high values
# experimental.setup: 5 µM
About 13,000 (27%) of roughly 48,000 compounds showed an effect of 50% or more. Some of the results follow.
recorded.endpoint: Percent Effect (%)
Write it as a number; the unit % goes unstated.

Example compounds with recorded Percent Effect:
O=C(Cc1nc(-c2ccncc2)n[nH]1)N1CCOCC1
104.3
O=C(CCC1CC1)N1CCC(n2cc(C3(O)CCCC3)nn2)CC1
-0.3223
O=C(NCc1cc(Br)cs1)Nc1cn[nH]c1
79.99
COc1ccc2c(c1)CCCN(C(=O)NCC1CCCO1)C2 (stereo not drawn)
114.2
O=C(NCc1csc(Br)c1)Nc1cn[nH]c1
91.45

So what's the measured Percent Effect for this one? "COc1cccc(S(=O)(=O)N2C[C@H](OC)[C@]3(CCCO3)C2)c1"
151.5

Try the compound "CN(Cc1cscn1)Cc1cc2c(cc1Br)OCO2"
7.123

====

# Test system: Wolbachia pipientis
# test.name: Anti-Wolbachia Cell-Based Screen
# Format: functional
# Set-up: scale not given: in the data most compounds retested in dose-response had high values
# experimental.setup: 5 µM
Screen size: about 48,000 compounds; about 13,000 (27%) showed an effect of 50% or more. The list shows a part of the results.
recorded.endpoint: Percent Effect (%)
Write it as a number; the unit % goes unstated.

Cc1nc(CN2CCCN(C(=O)c3sccc3C#N)CC2)cs1
111.7
O=C1CCCN1c1cccc(CNCc2cc(F)ccc2F)c1
-5.013
O=C(NCc1ccncc1)N(Cc1ccc(F)cc1F)C1CC1
-2.267
Cc1ccsc1C(=O)N1CCCN(Cc2cscn2)CC1
92.98
CCn1ccnc1CN1CCCN(C(=O)c2sccc2C#N)CC1
2.639

So what's the measured Percent Effect for this one? "CN(C)S(=O)(=O)N1CCC(Oc2ccccn2)CC1"
-12.57

Try the molecule O=C(O)C(F)(F)F.O=C(O)C(F)(F)F.O=C(O)c1cc2c(nc1NCC1CC1)CCN(C1CCOC1)CC2 (centres undefined)
-1.204

Try the molecule COCCN(C)CCN1CC2(CCN(C3CCCOC3)CC2)OC1=O (centres undefined)
-0.4921
